Data origin: patent US20090215778A1

Give IC50 for every item shown.
Target: HIV Env six-helix bundle (6HB) structure (Human immunodeficiency virus type 1 group M subtype B, UniProt P04579)
Construct: H9 cells chronically infected with HIV-1 (H9/HIV-1RF); endogenous in cells; host or cells: H9 cells chronically infected with HIV-1 strain RF (Env is made from the virus in the infected cells, not by transfection)
Sequence (P04579 32-519): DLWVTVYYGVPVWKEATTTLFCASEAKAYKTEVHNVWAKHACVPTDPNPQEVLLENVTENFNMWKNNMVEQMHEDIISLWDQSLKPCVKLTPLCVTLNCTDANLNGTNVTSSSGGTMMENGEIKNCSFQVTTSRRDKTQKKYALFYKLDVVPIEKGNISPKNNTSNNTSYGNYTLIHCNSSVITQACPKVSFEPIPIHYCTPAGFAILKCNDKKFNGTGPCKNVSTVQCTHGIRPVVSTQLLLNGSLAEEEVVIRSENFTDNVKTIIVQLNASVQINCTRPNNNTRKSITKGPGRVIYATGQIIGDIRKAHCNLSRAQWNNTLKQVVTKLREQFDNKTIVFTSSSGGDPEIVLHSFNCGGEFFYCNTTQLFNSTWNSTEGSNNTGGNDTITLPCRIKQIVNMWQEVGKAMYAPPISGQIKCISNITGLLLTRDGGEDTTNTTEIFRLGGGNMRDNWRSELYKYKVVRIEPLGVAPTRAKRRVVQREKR
Sequence (P04579 520-865): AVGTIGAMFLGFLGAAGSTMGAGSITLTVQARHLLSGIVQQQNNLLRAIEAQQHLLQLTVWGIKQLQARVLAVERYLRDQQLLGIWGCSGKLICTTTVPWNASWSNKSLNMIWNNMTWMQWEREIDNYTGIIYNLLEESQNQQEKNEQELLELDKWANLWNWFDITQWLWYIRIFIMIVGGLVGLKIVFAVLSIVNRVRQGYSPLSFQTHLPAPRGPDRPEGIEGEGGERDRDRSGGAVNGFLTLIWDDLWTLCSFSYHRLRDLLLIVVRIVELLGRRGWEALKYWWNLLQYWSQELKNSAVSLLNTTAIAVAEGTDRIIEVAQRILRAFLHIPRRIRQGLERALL
Experiment: Six-helix bundle (6HB) assay
Format: cell-based, HIV-1 (strain RF)

Inquiry: Requested field: IC50. Item: COc1ccc(-c2nc3c(C(=O)N4CCN(C(CO)c5cc(C)cs5)C[C@H]4C)cnn3c(C(F)(F)F)c2C)cc1 (stereo partly drawn)
Reply text: < 1 µM

Inquiry: Requested field: IC50. Item: "COc1ccc(-c2nc3c(C(=O)N4CCN([C@@H](C)c5cc(F)cc(F)c5)C[C@H]4C)cnn3c(C(F)(F)F)c2C)cc1"
Reply text: < 1 µM

Inquiry: Requested field: IC50. Item: "COc1ccc(-c2nc3c(C(=O)N4CCN([C@@H](C)c5cccc(NS(C)(=O)=O)c5)C[C@H]4C)cnn3c(C(F)(F)F)c2C)cc1"
Reply text: < 1 µM

Inquiry: Requested field: IC50. Item: COc1ccc(-c2nc3c(C(=O)N4CCN(C(CO)c5cccc(F)c5F)C[C@H]4C)cnn3c(C(F)(F)F)c2C)cc1 (stereo partly drawn)
Reply text: < 1 µM

Inquiry: Requested field: IC50. Item: "COc1ccc(-c2nc3c(C(=O)N4CCN([C@@H](CO)c5ccccc5F)C[C@H]4C)cnn3c(C(F)(F)F)c2C)cc1"
Reply text: < 1 µM

Inquiry: Requested field: IC50. Item: "COc1ccc(-c2cc(C(F)(F)F)n3ncc(C(=O)N4CCN([C@H](C)c5ccccc5)CC4)c3n2)cc1"
Reply text: 1.1 to 10 µM

Inquiry: Requested field: IC50. Item: "COc1ccc(-c2nc3c(C(=O)N4CCN([C@@H](C)c5cc(F)c(F)c(F)c5)C[C@H]4C)cnn3c(C(F)(F)F)c2C)cc1"
Reply text: < 1 µM

Inquiry: Requested field: IC50. Item: "COc1ccc(-c2nc3c(C(=O)N4CCN([C@H](C)c5ccc(F)cc5)C[C@H]4C)cnn3c(C(F)(F)F)c2C)cc1"
Reply text: < 1 µM

Inquiry: Requested field: IC50. Item: "COc1ccc(-c2nc3c(C(=O)N4CCN([C@H](CO)c5c(C)noc5C)C[C@H]4C)cnn3c(C(F)(F)F)c2C)cc1"
Reply text: 1.1 to 10 µM

Inquiry: Requested field: IC50. Item: COc1ccc(-c2nc3c(C(=O)N4CCN(C(CO)c5cccc(C(F)(F)F)c5)C[C@H]4C)cnn3c(C(F)(F)F)c2C)cc1 (stereo partly drawn)
Reply text: < 1 µM

Inquiry: Requested field: IC50. Item: COc1ccc(-c2nc3c(C(=O)N4CCN(C(CO)c5ccccc5N)C[C@H]4C)cnn3c(C(F)(F)F)c2C)cc1 (stereo partly drawn)
Reply text: 1.1 to 10 µM

Inquiry: Requested field: IC50. Item: COc1ccc(-c2nc3c(C(=O)N4CCN(C(CO)c5ccccc5F)C[C@H]4C)cnn3c(C(F)(F)F)c2C)cc1 (stereo partly drawn)
Reply text: < 1 µM

Inquiry: Requested field: IC50. Item: "COc1ccc(-c2nc3c(C(=O)N4CCN([C@@H](C)c5ccc(F)c(F)c5)C[C@H]4C)cnn3c(C(F)(F)F)c2C)cc1"
Reply text: < 1 µM

Inquiry: Requested field: IC50. Item: "COc1ccc(-c2nc3c(C(=O)N4CCN([C@@H](CO)c5cc(C)cs5)C[C@H]4C)cnn3c(C(F)(F)F)c2C)cc1"
Reply text: < 1 µM

Inquiry: Requested field: IC50. Item: COc1ccc(-c2nc3c(C(=O)N4CCN(C(CO)c5c(F)ccc(OC)c5F)C[C@H]4C)cnn3c(C(F)(F)F)c2C)cc1 (stereo partly drawn)
Reply text: < 1 µM
